System: Alopecurus myosuroides
assay: Pre-emergence herbicidal activity, glasshouse pot test
Type: in vivo
measurement_setup: pre-emergence spray, rate 1000 g/ha, evaluated after 13 days, scale 0-5
measure_name: ALOMY damage score, application pre-emergence
Please give the numeric answer without any surrounding text.

**Query** Would you mind telling me what ALOMY damage score, application pre-emergence value was observed for COC1=C(C)C(O)N(c2cc(C)c(C(=O)NC3(C#N)CC3)cn2)C1=O (centres unmarked) ?
**Result** 3

**Query** Would you kindly repeat that for COC1=C(C)C(O)N(c2cc(C(F)(F)F)ccn2)C1=O (centres unmarked) ?
**Result** 4

**Query** Would you kindly repeat that for CC1=C(Cl)C(=O)N(c2cc(C(C)C#N)ncn2)C1O (centres unmarked) ?
**Result** 4

**Query** Would you kindly repeat that for CC1=C(Cl)C(=O)N(c2nccc(C(C)(C)C)n2)C1O (centres unmarked) ?
**Result** 4

**Query** Would you kindly repeat that for CC1=C(Cl)C(=O)N(c2cc(C(C)(F)F)ncn2)C1O (centres unmarked) ?
**Result** 3

###

System: Amaranthus retroflexus
assay: Post-emergence herbicidal activity, glasshouse pot test
Assay type: in vivo
Set-up: key: 0 = no damage to plant, 5 = total damage to plant
measurement_setup: Application post-emergence, rate 1000 g/ha, evaluated after 13 days
Give AMARE herbicidal damage score for every item shown.
Please give the numeric answer without any surrounding text.

**Query** Observed AMARE herbicidal damage score on Amaranthus retroflexus for CCc1cc(N2C(=O)C(OC)=C(C)C2O)ncc1Br (centres unmarked) , please.
**Result** 5

**Query** Would you kindly repeat that for COC1=C(C)C(O)N(c2cc(C(C)(F)F)c(-c3ccc(C)c(F)c3)nn2)C1=O (centres unmarked) ?
**Result** 5

**Query** Would you kindly repeat that for C#CCNC(=O)c1cnc(N2C(=O)C(OC)=C(C)C2O)cc1C(F)(F)F (centres unmarked) ?
**Result** 5

**Query** Would you kindly repeat that for CC1=C(Cl)C(=O)N(c2cc(C(F)(F)F)c(C(=O)NC(C)(C)C)cn2)C1O (centres unmarked) ?
**Result** 5

**Query** Would you kindly repeat that for COC1=C(OC)C(O)N(c2cc(Cl)c(Cl)cn2)C1=O (centres unmarked) ?
**Result** 5

**Query** Would you kindly repeat that for COc1ccc(N2C(=O)C(Cl)=C(C)C2O)nn1 (centres unmarked) ?
**Result** 5

**Query** Would you kindly repeat that for C/C=C/c1cc(N2C(=O)C(Cl)=C(C)C2O)ncn1 (centres unmarked) ?
**Result** 2

**Query** Would you kindly repeat that for COC1=C(OC)C(O)N(c2cc(Br)ccn2)C1=O (centres unmarked) ?
**Result** 5

**Query** Would you kindly repeat that for COC1=C(C)C(O)N(c2cc(C(C)(F)F)c(-c3cccnc3)nn2)C1=O (centres unmarked) ?
**Result** 5

**Query** Would you kindly repeat that for COC1=C(C)C(O)N(c2cc(C(F)(F)F)c(-c3cncnc3)cn2)C1=O (centres unmarked) ?
**Result** 5

**Query** Would you kindly repeat that for CC(=O)OC1C(C)=C(Cl)C(=O)N1c1cc(C(F)(F)F)ccn1 (centres unmarked) ?
**Result** 5

**Query** Would you kindly repeat that for COC1=C(C)C(O)N(c2ccc(C(=O)NC(C)(C)C#N)nn2)C1=O (centres unmarked) ?
**Result** 5

**Query** Would you kindly repeat that for CC1=C(Br)C(=O)N(c2cc(C(F)(F)F)ccn2)C1O (centres unmarked) ?
**Result** 5

**Query** Would you kindly repeat that for COC1=C(C)C(O)N(c2ccc([N+](=O)[O-])cn2)C1=O (centres unmarked) ?
**Result** 0

**Query** Would you kindly repeat that for COC1=C(C)C(O)N(c2cc(C(C)(C)C)c(N3CC(F)(F)C3)nn2)C1=O (centres unmarked) ?
**Result** 5

**Query** Would you kindly repeat that for COC1=C(C)C(O)N(c2cc(F)ccn2)C1=O (centres unmarked) ?
**Result** 5

**Query** Would you kindly repeat that for CC1=C(Cl)C(=O)N(c2cc(C(C)C)c(C(=O)NC(C)(C)C)cn2)C1O (centres unmarked) ?
**Result** 5

**Query** Would you kindly repeat that for CC1=C(Cl)C(=O)N(c2cc(C(F)(F)F)cc[n+]2[O-])C1O (centres unmarked) ?
**Result** 0

**Query** Would you kindly repeat that for CC1=C(Cl)C(=O)N(c2cc(C(F)(F)F)c(Cl)cn2)C1O (centres unmarked) ?
**Result** 5

**Query** Would you kindly repeat that for COC1=C(C)C(O)N(c2ccc(C(=O)NC(C)(C)C)cn2)C1=O (centres unmarked) ?
**Result** 5

**Query** Would you kindly repeat that for COC1=C(C)C(O)N(c2cc(C(C)(C)F)c(-c3ccc(F)cc3)nn2)C1=O (centres unmarked) ?
**Result** 5

**Query** Would you kindly repeat that for CCC(CNC(=O)c1cnc(N2C(=O)C(OC)=C(C)C2O)cc1C)C(F)(F)F (centres unmarked) ?
**Result** 5

**Query** Would you kindly repeat that for CC(C)C1=C(Cl)C(=O)N(c2cc(C(F)(F)F)ccn2)C1O (centres unmarked) ?
**Result** 0

**Query** Would you kindly repeat that for COC1=C(C)C(O)N(c2cc(OC(F)(F)F)ccn2)C1=O (centres unmarked) ?
**Result** 4

**Query** Would you kindly repeat that for CC1=C(Cl)C(=O)N(c2cc(OC(C)C)ncn2)C1O (centres unmarked) ?
**Result** 4

**Query** Would you kindly repeat that for COC1=C(C)C(O)N(c2cc(C(F)(F)F)c(OC)cn2)C1=O (centres unmarked) ?
**Result** 5

**Query** Would you kindly repeat that for CC1=C(Cl)C(=O)N(c2cc(C(F)(F)F)c(-c3ccc(Cl)cc3)cn2)C1O (centres unmarked) [AF87] ?
**Result** 5

**Query** Would you kindly repeat that for COC1=C(C)C(O)N(c2cc3c(nn2)CCCC3)C1=O (centres unmarked) ?
**Result** 3

**Query** Would you kindly repeat that for COC1=C(C)C(O)N(c2cc(C(C)(C)C)c(-c3ccc(F)nc3)nn2)C1=O (centres unmarked) ?
**Result** 5

**Query** Would you kindly repeat that for CCN(CC)C(=O)c1cnc(N2C(=O)C(Cl)=C(C)C2O)cc1C(F)(F)F (centres unmarked) ?
**Result** 0

**Query** Would you kindly repeat that for CC1=C(Cl)C(=O)N(c2cc(C(C)C)c(C(=O)OC(C)C)cn2)C1O (centres unmarked) ?
**Result** 5

**Query** Would you kindly repeat that for C=C(OCC)c1nnc(N2C(=O)C(OC)=C(C)C2O)cc1C(C)(F)F (centres unmarked) ?
**Result** 5

**Query** Would you kindly repeat that for COc1ccc(-c2ccc(N3C(=O)C(Cl)=C(C)C3O)nc2)cc1 (centres unmarked) ?
**Result** 3

**Query** Would you kindly repeat that for COC1=C(OC)C(O)N(c2cc(C(F)(F)F)ccn2)C1=O (centres unmarked) ?
**Result** 5

**Query** Would you kindly repeat that for CC1=C(Cl)C(=O)N(c2cc(C(C)(C)C)ncn2)C1O (centres unmarked) ?
**Result** 5

**Query** Would you kindly repeat that for CC1=C(Cl)C(=O)N(c2ccc(C(F)(F)F)nn2)C1O (centres unmarked) ?
**Result** 2

**Query** Would you kindly repeat that for CCOC(=O)c1cnc(N2C(=O)C(OC)=C(C)C2O)cc1Cl (centres unmarked) ?
**Result** 5

**Query** Would you kindly repeat that for CC(=O)c1ccnc(N2C(=O)C(Cl)=C(C)C2O)c1 (centres unmarked) ?
**Result** 1

**Query** Would you kindly repeat that for COC1=C(C)C(O)N(c2cc(C)c(Br)cn2)C1=O (centres unmarked) ?
**Result** 5

**Query** Would you kindly repeat that for CCOC(=O)c1cnc(N2C(=O)C(OC)=C(C)C2O)nc1C(F)(F)F (centres unmarked) ?
**Result** 5

**Query** Would you kindly repeat that for COC1=C(C)C(O)N(c2cc(C(C)(C)C)c(Cl)nn2)C1=O (centres unmarked) [BI32] ?
**Result** 5
